# TARGET_UNDER_TEST: recombinant soluble trimeric 2009 H1 HA (A/California/04/2009, wild type) (Influenza A virus A/California/04/2009 (H1N1))
# ASSAY_SUMMARY: ELISA, supernate
QUANTITY_NAME: OD (OD)

>>> experimental_value("mAb 6K14 (antibody, V domains shown) VH: EVQLVESGAEVKKPGASVKVSCKASGYTFTSFDINWVRQAPGQGLEWMGWMTPTSGKTGYAQKFQGRITMTRNTSINTAYMELSSLRSEDTAVYFCARGPERRTTIFDVILDWFDPWGQGTLVTVS VL: DIVMTQSPFSLSLSPGERATLSCRASQSISNYLAWYQQKPGQAPRLLIYDSSNRATGVPARFSGSGSGTDFTLTISSLEPEDFAVYYCQQRSNWMYTFGQGTKVEIKR")
2.12
>>> experimental_value("mAb 2O10 (antibody, V domains shown) VH: EVQLVESGGGLVQPGGSLRLSCAASGFTFNSYWMTWVRQAPGKGLEWVANINQDGSEKFFVDSVKGRFTISRDNAKTSLYLQMNSLRVEDTAVYYCAREGAPYDTYYYYYAMDVWGQGTTVTVS VL: QSVLTQPPSVSGAPGQRVTISCTGTSSNIGAGYGVHWYQQLPGAAPKLLVYGNSNRPSGVPDRFSGSKSGTSASLAITGLQAEDEADYYCQSYDISLSGSNVFGTGTKVTVLG")
1.62
>>> experimental_value("mAb 5I17 (antibody, V domains shown) VH: EVQLVESGGGVVQPGRSLRLSCAASGFSFSNYAMHWVRQAPGKGLEWVALISFDGSDKYYADSVKGRFTMSRDNSKNTLYLQMNSLRAEDTAVYYCARDEPYCGGDCFAFDVWGQGTMVTVS VL: DIQLTQSPSSLSASAGDRVSMTCRASQIISSSLNWYQQKPGKAPKLLIYAASNLQSGVPSRFSGSGSGTDFTLTISSLQPEDFATYYCQQSYSTPPELTFGGGTKVDIKR")
0.668
